Where do these numbers come from? They come from patent US9216181B2.

# Tested on: BMP-2
# Experiment Notes: BMP-2 fold change of JHU library compounds, confirmed by qPCR
# Type: cell-based, human
# Protocol Conditions: JHU library compounds; non-treated = 1.00
Here the recorded Fold change (BMP-2) is given for each entry.
# unit: fold | format: bare number

COc1ccc(-c2cc(=O)c3c(O)cc(O[C@@H]4O[C@H](CO[C@@H]5O[C@@H](C)[C@H](O)[C@@H](O)[C@H]5O)[C@@H](O)[C@H](O)[C@H]4O)cc3o2)cc1O [Diosmin] = 9.00
CC(=O)OCC(=O)[C@@]1(O)CC[C@H]2[C@@H]3C[C@H](C)C4=CC(=O)C=C[C@]4(C)[C@H]3[C@@H](O)C[C@@]21C [6alpha-METHYLPREDNISOLONE ACETATE] = 35.00

IN: Using BMP-2 as the test system, report measured Fold change (BMP-2) of CCCOc1ccc2nc(NC(=O)OC)[nH]c2c1 [Oxibendazole] .
OUT: 18.00
